The measurements presented in this section are drawn from ChEMBL document CHEMBL1201862.

- System: MOLT-4
- test-method-notes: NCI tumour cell line growth inhibition, 48 h
The source made the active and inactive calls. Cut-off read from the data, not from the text of the source: active = GI50 up to about 1.1 µM and inactive = higher.
Respond using exactly one of the listed classes: active, inactive

[
  {
    "compound": "CC(=O)c1cnc2oc3ccc(O)cc3c2c1-c1ccccc1",
    "class-label": "inactive"
  },
  {
    "compound": "O=C(Nc1c(Cl)cc([N+](=O)[O-])cc1Cl)C(=O)C(C1OC(=O)c2ccccc21)[N+](=O)[O-] (configuration not stated)",
    "class-label": "inactive"
  },
  {
    "compound": "O=C(Cc1nc2ccccc2o1)C(=O)Nc1cccc(Cl)c1",
    "class-label": "inactive"
  }
]

Q) What did the test return for COC(=O)C[C@H]1[C@]2(C)C3=C(C)[C@H](c4ccoc4)CC3O[C@@H]2[C@@H]2OC(=O)[C@]3(C)CCC(=O)[C@@]1(C)[C@@H]23 (some centres not stated) ?
A) inactive

Q) What did the test return for CC1=C(C(=O)N(C(C)C)C(C)C)CC(C(=O)N(C(C)C)C(C)C)=C(C)N1 ?
A) inactive

Q) What did the test return for CC1(C)CC2=C(Sc3ccccc3N2)C(=O)C1C(=O)C(=O)Nc1cccc([N+](=O)[O-])c1 (configuration not stated) ?
A) inactive

Q) What did the test return for CN(C)c1cccc2c1C(=O)C=CC21c2ccc(N(C)C)c3c(N(C)C)ccc(c23)C(c2ccccc2)C1c1ccccc1 (configuration not stated) ?
A) active

###

- Test system: OVCAR-3
- test-method-notes: NCI tumour cell line growth inhibition, 48 h
Calls of active or inactive are those of the source. No stated cut-off is given here; in the data, active = GI50 up to about 1.1 µM and inactive = higher.
Respond using exactly one of the listed classes: T = active, F = inactive

Check out these entries, answers already filled in.
[
  {
    "molecule": "O=C1CC(=O)NC(NNS(=O)(=O)c2ccc(Cl)cc2)=N1",
    "class-label": "F"
  },
  {
    "molecule": "Brc1ccc2c(C3CN[C@@H](c4c[nH]c5cc(Br)ccc45)CN3)c[nH]c2c1 (stereo not given in full)",
    "class-label": "F"
  },
  {
    "molecule": "CN1Cc2c(nc(-c3ccccc3)c[n+]2[O-])N(C)C1",
    "class-label": "F"
  },
  {
    "molecule": "CCOc1ccc(C(=O)/C=C2/Nc3ccccc3N/C2=C/C(=O)c2ccc(OCC)cc2)cc1",
    "class-label": "F"
  },
  {
    "molecule": "CC(=O)OC12c3ccccc3C1CCCC21OCCCO1 (stereo not given)",
    "class-label": "F"
  }
]

Q) What did the test return for CC(C)(C)C1=CC(=N/N=c2\scc(-c3ccccc3)n2Cc2ccccc2)C=C(C(C)(C)C)C1=O ?
A) F

Q) What did the test return for Cc1ccc(S(=O)(=O)N2CCSCCN(S(=O)(=O)c3ccc(C)cc3)CCN(S(=O)(=O)c3ccc(C)cc3)CC2)cc1 ?
A) F

Q) What did the test return for CCCCCCCCCCCC[C@@H](O)[C@H]1CC[C@H]([C@H](O)CCCC[C@H](O)CCCCC[C@@H](O)CC2=C[C@H](C)OC2=O)O1 ?
A) T

Q) What did the test return for Cc1cc(C)c2c(c1)N[S@@](=O)S2 ?
A) F

Q) What did the test return for CC(Oc1ccc(OCC2CCCCC2)cc1)C(N)=O (stereo not given) ?
A) F

Q) What did the test return for COc1ccc2c(c1)[n+]([O-])c(-c1c(Cl)cccc1Cl)c(N)[n+]2[O-] ?
A) F

Q) What did the test return for O=C1C(c2ccc([N+](=O)[O-])cc2)=C(Cl)C(=O)c2c(O)cccc21 ?
A) F

Q) What did the test return for COC1(OC)CC(CO)(CNc2cc(Cl)nc(N)n2)C1 ?
A) F

Q) What did the test return for CCOC(=O)/C(=C\c1ccnc2ccccc12)P(=O)(OCC)OCC ?
A) F

Q) What did the test return for CC1=C(C)CC2(CCCCC2=O)[S+]([O-])C1 (stereo not given) ?
A) F

Q) What did the test return for O=c1/c(=C/c2ccccc2[N+](=O)[O-])sc2nc3ccccc3n12 ?
A) F

Q) What did the test return for N#C/C(N)=C(\C#N)NC(=O)C(=O)N/C(C#N)=C(\N)C#N ?
A) F

Q) What did the test return for O=[N+]([O-])c1cccc2nc3ccccc3c(NCCCNc3c4ccccc4nc4cccc([N+](=O)[O-])c34)c12 ?
A) T

Q) What did the test return for Cc1ccc(C2=Nn3c(nc4sc(-c5ccccc5)cc4c3=O)SC2)cc1 ?
A) F

Q) What did the test return for C=C1C(=O)OC2C1C(OC(=O)/C(C)=C/C)CC(O)(CCl)C1C(O)C3OC3(C)C21O (stereo not given) ?
A) F

###

- Test system: OVCAR-4
- test-method-notes: NCI tumour cell line growth inhibition, 48 h
The source made the active and inactive calls. Cut-off read from the data, not from the text of the source: active = GI50 up to about 1.1 µM and inactive = higher.
Each record here notes measured GI50.

Example results:
[
  {
    "compound": "C/C(=C\\COc1ccc2ccc(=O)oc2c1)CCC(=O)C(C)(C)O",
    "GI50": "51.9 µM (inactive)"
  },
  {
    "compound": "CCOC(=O)C1=CC(C)(C(=O)OCC)Nc2c(nc(OC)[nH]c2=O)N1 (centres undefined)",
    "GI50": "> 10 µM (inactive)"
  },
  {
    "compound": "OC1(c2ccccc2)CSC2=Nc3ccccc3C3CCN1N23 (centres undefined)",
    "GI50": "23.1 µM (inactive)"
  }
]

Q) Name the recorded GI50 of the item CC1(C)CC(=O)C(/C(=N/NC(=S)NN)C(=O)Nc2nc3ccc([N+](=O)[O-])cc3s2)C(=O)C1 in your answer.
A) > 100 µM (inactive)

Q) Name the recorded GI50 of the item Cc1cc(C)c2c(c1)N[S@@](=O)S2 in your answer.
A) 23.1 µM (inactive)

Q) Name the recorded GI50 of the item C#C/C=C\CCCC/C=C\C#CC#CCCCC#CC#C[C@H](COS(=O)(=O)O)OS(=O)(=O)O in your answer.
A) > 100 µM (inactive)

Q) Name the recorded GI50 of the item CN(C)CCCn1cnc2ncccc2c1=O in your answer.
A) > 100 µM (inactive)

Q) Name the recorded GI50 of the item CNC(=O)OC(COC)CN1CCN(c2ccccc2C)CC1 (centres undefined) in your answer.
A) > 10 µM (inactive)

Q) Name the recorded GI50 of the item O=C(Nc1cccc(C(F)(F)F)c1)c1cc(-c2ccccc2)nc(S)n1 in your answer.
A) > 100 µM (inactive)

###

- Test system: RXF 393
- test-method-notes: NCI tumour cell line growth inhibition, 48 h
Calls of active or inactive are those of the source. Cut-off read from the data, not from the text of the source: active = GI50 up to about 1.1 µM and inactive = higher.
Respond using exactly one of the listed classes: class 1 for active, class 0 for inactive

Check out these entries, answers already filled in.
[
  {
    "molecule": "OC1(c2ccccc2)CSC2=Nc3ccccc3C3CCN1N23 (stereo not given)",
    "target-entity": "RXF 393",
    "class-label": "class 0"
  },
  {
    "molecule": "Cc1ccc(C(=O)CC2(O)C(=O)Nc3c(C)cc(Cl)cc32)cc1 (stereo not given)",
    "target-entity": "RXF 393",
    "class-label": "class 0"
  },
  {
    "molecule": "Cc1cc(S(=O)(=O)[N-]/C(=N/S(=O)(=O)c2ccc(Cl)cc2)[n+]2ccc(N(C)C)cc2)c(S)cc1Cl",
    "target-entity": "RXF 393",
    "class-label": "class 0"
  },
  {
    "molecule": "COc1cc2nncc(SCc3ccc(Cl)c(Cl)c3)c2cc1OC",
    "target-entity": "RXF 393",
    "class-label": "class 0"
  },
  {
    "molecule": "COc1ncnc2c(NC3OC(CO)C(O)C3O)ncnc12 (stereo not given)",
    "target-entity": "RXF 393",
    "class-label": "class 1"
  },
  {
    "molecule": "CC(C)NC(=O)OCc1c(COC(=O)NC(C)C)n(C)c2c1ccc1sccc12",
    "target-entity": "RXF 393",
    "class-label": "class 0"
  },
  {
    "molecule": "CN(C)CCCn1cnc2ncccc2c1=O",
    "target-entity": "RXF 393",
    "class-label": "class 0"
  },
  {
    "molecule": "Cc1ccsc1/C=N/Nc1nncc2ccccc12",
    "target-entity": "RXF 393",
    "class-label": "class 0"
  }
]

Q) What did the test return for O=C(C/C(=N\NC(=O)C[n+]1ccccc1)C(=O)Nc1nc2ccc([N+](=O)[O-])cc2s1)CC(c1ccccc1)c1c(O)c2ccccc2oc1=O (stereo not given) ?
A) class 0

Q) What did the test return for N#Cc1nc(C2=C(Cl)c3ccccc3OC2)[nH]c1C#N ?
A) class 0

###

- Test system: CCRF-CEM
- test-method-notes: NCI tumour cell line growth inhibition, 48 h
Active and inactive are the calls of the source. No stated cut-off is given here; in the data, active = GI50 up to about 1.1 µM and inactive = higher.
Respond using exactly one of the listed classes: T for active, F for inactive

Check out these entries, answers already filled in.
[
  {
    "compound": "Oc1nc2c(c(-c3cccc(Cl)c3)n1)COC/C2=C\\c1cccc(Cl)c1",
    "class-label": "F"
  },
  {
    "compound": "CC1C(=O)O[B-]2(c3ccccc3)Oc3ccccc3C=[N+]12 (configuration not stated)",
    "class-label": "F"
  },
  {
    "compound": "COC(=O)C1=Cc2cc3c(cc2[C@H](c2ccc4c(c2)OCO4)C1C(=O)OC)OCO3 (some centres not stated)",
    "class-label": "F"
  },
  {
    "compound": "CCNC(C)Cc1ccccc1 (configuration not stated)",
    "class-label": "F"
  },
  {
    "compound": "COc1ccc(/C=N/n2cnc3c(c2=O)S/C(=C2/SC(=S)N(c4ccc(C)cc4)C2=O)N3c2ccccc2)cc1",
    "class-label": "F"
  },
  {
    "compound": "C/C(=N\\NC(=S)Nc1ccc(C)cc1)c1nc2cccnc2[nH]1",
    "class-label": "T"
  }
]

Q) What did the test return for O=C1CC(=O)NC(NNS(=O)(=O)c2ccc(Cl)cc2)=N1 ?
A) F

Q) What did the test return for CCCCCCCCC/C=C1/CC(CO)(COC(=O)CC(C(C)C)C(C)C)OC1=O (configuration not stated) ?
A) F

Q) What did the test return for CCN1CC2=C(NC(=S)NC2c2cc(OC)c(OC)c(OC)c2)/C(=C/c2cc(OC)c(OC)c(OC)c2)C1 (configuration not stated) ?
A) F

Q) What did the test return for COc1ccc(/N=N\c2c(N)nn3c(SC)c(C#N)c(N)nc23)cc1 ?
A) F

Q) What did the test return for NC(=O)/C=C/NC(=O)/C=N\O ?
A) F

Q) What did the test return for CCOC(=O)c1cc2c([nH]1)c(O)cc1c2ccn1Cc1ccccc1 ?
A) F

Q) What did the test return for CSc1cccc(NC(=O)OC2CCCCCCCCCCC2)c1 ?
A) F

Q) What did the test return for CCN(CC)CCC(=O)/C=C/c1ccc(Cl)c(Cl)c1 ?
A) F

Q) What did the test return for N#C/C(C(=O)Nc1ccc(Cl)cc1)=C(/N)N1CCCC1 ?
A) F

Q) What did the test return for CC1=C(c2ccccc2)NC(=S)C(C)C(c2ccccc2)=N1 (configuration not stated) ?
A) F

Q) What did the test return for COC(=O)/C(=N\NC(N)=O)C(C#N)c1ccccc1 (configuration not stated) ?
A) F

Q) What did the test return for COC(=O)C[C@H]1[C@]2(C)C3=C(C)[C@H](c4ccoc4)CC3O[C@@H]2[C@@H]2OC(=O)[C@]3(C)CCC(=O)[C@@]1(C)[C@@H]23 (some centres not stated) ?
A) F

Q) What did the test return for COC(=O)CC1CN(C(=O)OCc2ccccc2)C(C)(C)O1 (configuration not stated) ?
A) F

Q) What did the test return for CC(=O)N/C=C/c1cc(O)ccc1O ?
A) F

Q) What did the test return for CC(=O)OC12c3ccccc3C1CCCC21OCCCO1 (configuration not stated) ?
A) F

Q) What did the test return for O=C(O)CC1(C(=O)O)CCCCC1 ?
A) F
